Taken from ChEMBL document CHEMBL5154743.

# measurement notes: Permeability across apical to basolateral side in human Caco-2 cells incubated for 2 hrs by LC-MS/MS analysis
measured endpoint: Papp A→B at 2 h (×10⁻⁶ cm/s)
Response body: numeric value in ×10⁻⁶ cm/s, unit text excluded.

- compound string: "CCc1nc([C@@H](N)CC(C)C)nc2ccc(-c3cnco3)cc12"
  Papp A→B at 2 h, ×10⁻⁶ cm/s: 18.4
- compound string: "CC(C)C[C@H](N)c1cc(C#N)c2cc(-c3cnco3)ccc2n1"
  Papp A→B at 2 h, ×10⁻⁶ cm/s: 7.1

Report Papp A→B at 2 h for CC(C)C[C@@H](N)c1cc(C#N)c2cc(-c3ccncc3)ccc2n1 please.
13.5

Similarly, CC(C)C[C@H](N)c1cc(C#N)c2cc(-c3ccncc3)ccc2n1 ?
11.4

And for CCc1nc([C@@H](N)CC(C)C)nc2cc(OC)c(-c3cnco3)cc12 ?
13.4

---

# measurement notes: Permeability across basolateral to apical side in human Caco-2 cells incubated for 2 hrs by LC-MS/MS analysis
# Format: ADME, cell-based
# condition notes: Caco-2, read-out: permeability
We begin with a simple list: items and their reported Papp B→A at 2 h.

- compound string: "CCc1nc([C@@H](N)CC(C)C)nc2cc(OC)c(-c3cnco3)cc12"
  obs value: "14.2 ×10⁻⁶ cm/s"
- compound string: "CC(C)C[C@H](N)c1cc(C#N)c2cc(-c3ccncc3)ccc2n1"
  obs value: "4.4 ×10⁻⁶ cm/s"

Any idea what Papp B→A at 2 h was measured for CC(C)C[C@H](N)c1cc(C#N)c2cc(-c3cnco3)ccc2n1 ?
5.7 ×10⁻⁶ cm/s

Input CC(C)C[C@@H](N)c1cc(C#N)c2cc(-c3ccncc3)ccc2n1
10.3 ×10⁻⁶ cm/s

What about CCc1nc([C@@H](N)CC(C)C)nc2ccc(-c3cnco3)cc12 ?
15.6 ×10⁻⁶ cm/s

---

# test target: AP2-associated protein kinase 1 (Homo sapiens, UniProt Q2M2I8)
# Sequence (Q2M2I8 whole entry): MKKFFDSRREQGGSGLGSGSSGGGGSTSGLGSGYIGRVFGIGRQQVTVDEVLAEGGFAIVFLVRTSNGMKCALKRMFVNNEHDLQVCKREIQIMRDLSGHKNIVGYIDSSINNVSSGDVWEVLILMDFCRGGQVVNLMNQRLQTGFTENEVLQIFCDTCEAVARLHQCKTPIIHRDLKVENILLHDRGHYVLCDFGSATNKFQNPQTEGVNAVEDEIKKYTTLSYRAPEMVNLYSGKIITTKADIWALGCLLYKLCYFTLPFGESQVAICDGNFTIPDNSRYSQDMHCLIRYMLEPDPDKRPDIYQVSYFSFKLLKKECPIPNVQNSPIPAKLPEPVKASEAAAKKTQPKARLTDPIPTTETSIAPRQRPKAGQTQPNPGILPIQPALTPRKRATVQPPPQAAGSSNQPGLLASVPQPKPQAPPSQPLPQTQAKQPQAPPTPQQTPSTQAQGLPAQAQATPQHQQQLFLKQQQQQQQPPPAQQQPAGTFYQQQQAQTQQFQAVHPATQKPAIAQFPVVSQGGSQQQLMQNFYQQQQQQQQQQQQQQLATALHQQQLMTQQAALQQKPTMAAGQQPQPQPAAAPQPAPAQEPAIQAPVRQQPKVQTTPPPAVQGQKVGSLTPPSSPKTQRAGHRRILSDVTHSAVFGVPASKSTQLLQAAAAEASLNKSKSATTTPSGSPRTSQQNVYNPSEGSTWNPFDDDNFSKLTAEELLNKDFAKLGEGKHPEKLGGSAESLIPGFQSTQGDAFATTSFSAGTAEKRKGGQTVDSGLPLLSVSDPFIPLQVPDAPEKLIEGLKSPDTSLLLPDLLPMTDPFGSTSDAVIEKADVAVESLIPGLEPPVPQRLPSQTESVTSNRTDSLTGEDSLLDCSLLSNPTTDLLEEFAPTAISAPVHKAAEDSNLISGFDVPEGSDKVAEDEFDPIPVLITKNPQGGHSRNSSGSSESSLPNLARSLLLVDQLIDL
pIC50: −log10 of the molar value.
Tag: YES if measured pIC50 is not below 7, NO if it is.

- molecule: "CC(C)C[C@@H](N)c1cc(C#N)c2cc(-c3cnco3)ccc2n1"
  group label: "YES"
- molecule: "CCc1nc(C(N)CC(C)C)nc2cc(OC)c(-c3ccncc3)cc12 (configuration not stated)"
  group label: "NO"
- molecule: "CC(C)CC(N)c1nc2ccc(-c3ccncc3)cc2cc1C#N (configuration not stated)"
  group label: "NO"

Here is the next item to consider.
Please check the record CC(C)C[C@@H](N)c1cc(C#N)c2cc(-c3ccncc3)ccc2n1 and state if its pIC50 is at or above 7.
YES

---

# test target: Glycogen synthase kinase-3 beta (Homo sapiens)
# Sequence (P49841 whole entry): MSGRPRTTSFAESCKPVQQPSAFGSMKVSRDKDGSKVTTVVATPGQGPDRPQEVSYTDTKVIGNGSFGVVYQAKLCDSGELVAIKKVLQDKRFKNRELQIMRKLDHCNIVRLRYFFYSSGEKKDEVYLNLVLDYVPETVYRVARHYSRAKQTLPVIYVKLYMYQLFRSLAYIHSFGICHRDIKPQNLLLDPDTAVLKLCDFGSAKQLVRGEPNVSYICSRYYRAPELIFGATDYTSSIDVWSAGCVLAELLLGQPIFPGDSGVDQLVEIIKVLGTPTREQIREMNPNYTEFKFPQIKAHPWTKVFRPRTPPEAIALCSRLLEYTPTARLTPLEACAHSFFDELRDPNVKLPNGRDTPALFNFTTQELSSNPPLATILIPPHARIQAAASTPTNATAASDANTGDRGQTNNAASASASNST
# measurement notes: Inhibition of GSK3beta (unknown origin)
measured endpoint: pIC50
Keep it numeric: pIC50 is minus log10 of the concentration in mol/L.

So what does the record say about pIC50 for CC(C)C[C@H](N)c1cc(C#N)c2cc(-c3ccncc3)ccc2n1 ?
6.95

---

# measurement notes: Brain concentration in C57BL6 mouse at 30 mg/kg, sc by LC-MS analysis
# Format: ADME, organism-based
# condition notes: in vivo, read-out: Ct
Listing: concentration of selected molecules
The reply should be a number in µM, with the unit left off.

- compound string: "CC(C)C[C@@H](N)c1cc(C#N)c2cc(-c3ccncc3)ccc2n1"
  obs value: 29

Here's the next entry for you.
Give the measured concentration of CC(C)C[C@H](N)c1cc(C#N)c2cc(-c3ccncc3)ccc2n1 .
23
